These entries and their values trace back to patent US9738660B2.

- SYSTEM UNDER TEST: PAK4 (Homo sapiens)
- Sequence (O96013 whole entry): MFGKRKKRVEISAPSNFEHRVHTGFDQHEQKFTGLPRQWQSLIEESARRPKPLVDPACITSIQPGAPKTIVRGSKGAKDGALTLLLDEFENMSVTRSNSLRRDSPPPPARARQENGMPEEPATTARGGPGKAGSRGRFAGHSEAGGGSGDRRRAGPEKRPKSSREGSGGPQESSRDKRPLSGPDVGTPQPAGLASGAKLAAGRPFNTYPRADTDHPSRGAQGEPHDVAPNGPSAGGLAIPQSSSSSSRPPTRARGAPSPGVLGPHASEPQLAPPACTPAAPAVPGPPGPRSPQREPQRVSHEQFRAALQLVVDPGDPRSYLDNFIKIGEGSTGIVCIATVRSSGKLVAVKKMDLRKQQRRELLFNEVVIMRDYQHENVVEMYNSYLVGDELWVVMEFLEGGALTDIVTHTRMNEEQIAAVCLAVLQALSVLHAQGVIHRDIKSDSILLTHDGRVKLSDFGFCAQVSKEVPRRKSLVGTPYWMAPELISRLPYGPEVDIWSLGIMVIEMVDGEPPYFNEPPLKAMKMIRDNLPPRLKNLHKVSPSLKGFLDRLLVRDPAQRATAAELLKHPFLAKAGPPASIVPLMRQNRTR
- PROCEDURE TEXT: Kinase Profiler, residual kinase activity
- Format: biochemical
- STATED CONDITIONS: PAK4; inhibitor at 500 nM; read-out: percentage of the remaining kinase activity
MEASUREMENT NAME: remaining activity at 0.5 µM (%)

P = COC1C(N(C)C(=O)C(N)Cc2ccc(O)cc2)CC2OC1(C)n1c3ccccc3c3c4c(c5c6ccccc6n2c5c31)C(=O)NC4 (stereo not drawn) [Compound 5]
Q = COC1C(N(C)Cc2ccc(-c3ccccc3)cc2)CC2OC1(C)n1c3ccccc3c3c4c(c5c6ccccc6n2c5c31)C(=O)NC4 (stereo not drawn) [Compound 9]
Choose between P and Q : whose measured remaining activity at 0.5 µM value is numerically larger? Pick one and reply with its label.
Q

###

- SYSTEM UNDER TEST: GSK3B (Homo sapiens, UniProt P49841)
- Sequence (P49841 whole entry): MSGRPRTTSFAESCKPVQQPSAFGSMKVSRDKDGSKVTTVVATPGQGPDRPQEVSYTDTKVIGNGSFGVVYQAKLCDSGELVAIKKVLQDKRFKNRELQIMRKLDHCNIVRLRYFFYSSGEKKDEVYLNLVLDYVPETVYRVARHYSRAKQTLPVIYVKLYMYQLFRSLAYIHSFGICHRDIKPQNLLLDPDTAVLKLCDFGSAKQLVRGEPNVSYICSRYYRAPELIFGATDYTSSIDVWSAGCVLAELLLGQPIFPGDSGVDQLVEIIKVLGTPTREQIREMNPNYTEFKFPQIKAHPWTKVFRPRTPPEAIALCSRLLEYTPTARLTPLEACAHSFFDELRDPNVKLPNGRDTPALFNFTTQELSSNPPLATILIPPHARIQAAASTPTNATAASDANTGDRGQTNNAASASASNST
- PROCEDURE TEXT: Kinase Profiler, residual kinase activity
- Format: biochemical
- STATED CONDITIONS: GSK3B; inhibitor at 500 nM; read-out: percentage of the remaining kinase activity
MEASUREMENT NAME: remaining activity at 0.5 µM (%)

Reference set (5 entries):
COC1C(N(C)C(=O)C(N)CCC(=O)O)CC2OC1(C)n1c3ccccc3c3c4c(c5c6ccccc6n2c5c31)C(=O)NC4 (stereo not shown) = 9.6
COC1C(N(C)C(=O)C(N)Cc2cn(C(=O)OC(C)(C)C)c3ccccc23)CC2OC1(C)n1c3ccccc3c3c4c(c5c6ccccc6n2c5c31)C(=O)NC4 (stereo not shown) = 94.2
COC1C(N(C)C(=O)C(N)Cc2ccc(OC(C)(C)C)cc2)CC2OC1(C)n1c3ccccc3c3c4c(c5c6ccccc6n2c5c31)C(=O)NC4 (stereo not shown) = 86.6
COC1C(N(C)C(=O)C(N)CCC(=O)OC(C)(C)C)CC2OC1(C)n1c3ccccc3c3c4c(c5c6ccccc6n2c5c31)C(=O)NC4 (stereo not shown) = 79.7
COC1C(N(C)C(=O)C(N)Cc2ccc(O)cc2)CC2OC1(C)n1c3ccccc3c3c4c(c5c6ccccc6n2c5c31)C(=O)NC4 (stereo not shown) = 29.4

a = COC1C(N(C)Cc2ccc(-c3ccccc3)cc2)CC2OC1(C)n1c3ccccc3c3c4c(c5c6ccccc6n2c5c31)C(=O)NC4 (stereo not shown)
b = COC1C(N(C)C(=O)C(N)Cc2c[nH]cn2)CC2OC1(C)n1c3ccccc3c3c4c(c5c6ccccc6n2c5c31)C(=O)NC4 (stereo not shown)
Choose between a and b : whose measured remaining activity at 0.5 µM value is numerically larger? Pick one and reply with its label.
a
(a: 46.6%, b: 17.9%)

###

- SYSTEM UNDER TEST: UniProt:Q9UM73
- Sequence (Q9UM73 19-1620): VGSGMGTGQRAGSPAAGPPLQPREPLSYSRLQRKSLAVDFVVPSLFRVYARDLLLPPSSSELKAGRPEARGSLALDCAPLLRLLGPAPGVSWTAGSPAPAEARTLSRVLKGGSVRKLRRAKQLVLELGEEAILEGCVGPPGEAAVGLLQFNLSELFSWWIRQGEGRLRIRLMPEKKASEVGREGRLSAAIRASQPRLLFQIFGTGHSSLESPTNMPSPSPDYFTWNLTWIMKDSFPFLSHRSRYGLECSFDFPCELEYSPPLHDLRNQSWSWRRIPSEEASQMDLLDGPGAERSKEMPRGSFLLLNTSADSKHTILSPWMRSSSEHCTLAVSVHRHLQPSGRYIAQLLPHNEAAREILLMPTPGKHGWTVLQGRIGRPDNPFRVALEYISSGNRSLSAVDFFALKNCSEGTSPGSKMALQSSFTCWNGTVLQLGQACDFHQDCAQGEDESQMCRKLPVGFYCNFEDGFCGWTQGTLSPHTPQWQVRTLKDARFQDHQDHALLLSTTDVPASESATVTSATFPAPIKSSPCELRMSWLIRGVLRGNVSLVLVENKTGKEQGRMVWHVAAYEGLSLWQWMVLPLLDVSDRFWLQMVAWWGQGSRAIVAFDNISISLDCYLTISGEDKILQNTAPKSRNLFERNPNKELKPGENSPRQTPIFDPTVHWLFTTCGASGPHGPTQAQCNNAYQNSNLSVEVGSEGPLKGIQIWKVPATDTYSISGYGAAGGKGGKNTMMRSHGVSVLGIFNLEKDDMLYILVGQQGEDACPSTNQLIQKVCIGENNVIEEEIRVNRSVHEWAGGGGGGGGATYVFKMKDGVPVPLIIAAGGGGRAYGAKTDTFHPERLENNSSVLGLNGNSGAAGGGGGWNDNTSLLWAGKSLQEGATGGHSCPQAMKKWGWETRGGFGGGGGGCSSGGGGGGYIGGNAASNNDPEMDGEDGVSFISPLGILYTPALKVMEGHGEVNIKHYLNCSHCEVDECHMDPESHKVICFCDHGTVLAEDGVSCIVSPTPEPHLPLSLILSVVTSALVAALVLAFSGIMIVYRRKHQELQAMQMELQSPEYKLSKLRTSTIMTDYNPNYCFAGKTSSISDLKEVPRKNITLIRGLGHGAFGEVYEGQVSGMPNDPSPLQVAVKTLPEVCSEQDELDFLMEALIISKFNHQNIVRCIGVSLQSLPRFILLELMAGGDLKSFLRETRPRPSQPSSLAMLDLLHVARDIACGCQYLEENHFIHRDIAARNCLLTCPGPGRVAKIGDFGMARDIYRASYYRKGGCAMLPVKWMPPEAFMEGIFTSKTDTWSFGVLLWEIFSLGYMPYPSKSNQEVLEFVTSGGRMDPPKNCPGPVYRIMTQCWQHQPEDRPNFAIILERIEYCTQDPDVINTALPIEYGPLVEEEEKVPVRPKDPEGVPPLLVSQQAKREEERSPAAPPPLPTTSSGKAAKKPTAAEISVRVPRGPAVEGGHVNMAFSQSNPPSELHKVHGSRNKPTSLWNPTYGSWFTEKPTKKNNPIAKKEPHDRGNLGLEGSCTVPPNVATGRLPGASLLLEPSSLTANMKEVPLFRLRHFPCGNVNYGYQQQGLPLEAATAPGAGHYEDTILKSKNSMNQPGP
- PROCEDURE TEXT: Kinase Profiler, residual kinase activity
- Assay type: biochemical
- STATED CONDITIONS: ALK; inhibitor at 500 nM; read-out: percentage of the remaining kinase activity
MEASUREMENT NAME: remaining activity at 0.5 µM (%)

Reference set (4 entries):
COC1C(N(C)Cc2ccc(-c3ccccc3)cc2)CC2OC1(C)n1c3ccccc3c3c4c(c5c6ccccc6n2c5c31)C(=O)NC4 (stereo not shown) [Compound 9] = 17.6
COC1C(N(C)C(=O)C(N)Cc2c[nH]cn2)CC2OC1(C)n1c3ccccc3c3c4c(c5c6ccccc6n2c5c31)C(=O)NC4 (stereo not shown) [Compound 1] = 3.3
COC1C(N(C)C(=O)C(N)Cc2ccc(OC(C)(C)C)cc2)CC2OC1(C)n1c3ccccc3c3c4c(c5c6ccccc6n2c5c31)C(=O)NC4 (stereo not shown) [Compound 4] = 56.7
COC1C(N(C)C(=O)C(N)CCC(=O)OC(C)(C)C)CC2OC1(C)n1c3ccccc3c3c4c(c5c6ccccc6n2c5c31)C(=O)NC4 (stereo not shown) [Compound 6] = 44.7

A = COC1C(N(C)C(=O)C(N)Cc2ccc(O)cc2)CC2OC1(C)n1c3ccccc3c3c4c(c5c6ccccc6n2c5c31)C(=O)NC4 (stereo not shown) [Compound 5]
B = COC1C(N(C)C(=O)C(N)Cc2cn(C(=O)OC(C)(C)C)c3ccccc23)CC2OC1(C)n1c3ccccc3c3c4c(c5c6ccccc6n2c5c31)C(=O)NC4 (stereo not shown) [Compound 2]
C = COC1C(N(C)C(=O)C(N)CCC(=O)O)CC2OC1(C)n1c3ccccc3c3c4c(c5c6ccccc6n2c5c31)C(=O)NC4 (stereo not shown) [Compound 7]
Arrange by remaining activity at 0.5 µM, high to low. Write the labels out in the order the request specifies.
B, A, C
(B: 85.4%, A: 29.1%, C: 4.7%)

###

- SYSTEM UNDER TEST: JAK2 (Homo sapiens)
- Sequence (O60674 whole entry): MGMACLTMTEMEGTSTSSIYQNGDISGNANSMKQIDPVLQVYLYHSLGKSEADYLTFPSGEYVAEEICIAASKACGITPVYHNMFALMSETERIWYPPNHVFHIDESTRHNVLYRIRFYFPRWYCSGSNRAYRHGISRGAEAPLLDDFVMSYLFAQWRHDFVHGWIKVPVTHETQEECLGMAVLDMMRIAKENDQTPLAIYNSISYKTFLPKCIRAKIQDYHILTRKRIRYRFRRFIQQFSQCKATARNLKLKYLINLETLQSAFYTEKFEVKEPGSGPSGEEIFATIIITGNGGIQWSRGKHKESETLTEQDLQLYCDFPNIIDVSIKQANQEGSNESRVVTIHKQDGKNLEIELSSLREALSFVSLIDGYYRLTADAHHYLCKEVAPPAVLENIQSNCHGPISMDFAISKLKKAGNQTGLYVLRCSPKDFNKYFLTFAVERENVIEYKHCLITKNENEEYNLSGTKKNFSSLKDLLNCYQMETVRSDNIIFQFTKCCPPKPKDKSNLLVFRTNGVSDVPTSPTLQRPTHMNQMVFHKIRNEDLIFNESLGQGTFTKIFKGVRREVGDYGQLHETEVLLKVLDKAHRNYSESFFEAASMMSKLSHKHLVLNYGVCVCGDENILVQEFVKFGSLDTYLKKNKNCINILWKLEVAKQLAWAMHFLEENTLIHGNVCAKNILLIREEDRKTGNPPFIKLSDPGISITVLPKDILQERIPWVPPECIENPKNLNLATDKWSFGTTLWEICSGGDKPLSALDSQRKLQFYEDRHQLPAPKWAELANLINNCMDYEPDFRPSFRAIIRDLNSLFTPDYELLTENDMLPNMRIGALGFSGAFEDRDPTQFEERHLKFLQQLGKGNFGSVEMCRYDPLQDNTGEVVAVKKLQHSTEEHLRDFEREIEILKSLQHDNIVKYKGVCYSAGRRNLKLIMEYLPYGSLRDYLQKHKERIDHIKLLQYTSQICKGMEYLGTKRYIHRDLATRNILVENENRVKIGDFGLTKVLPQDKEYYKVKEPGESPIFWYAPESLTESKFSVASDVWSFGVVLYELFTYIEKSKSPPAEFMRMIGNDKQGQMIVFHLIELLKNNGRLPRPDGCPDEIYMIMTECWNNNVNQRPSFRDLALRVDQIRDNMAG
- PROCEDURE TEXT: Kinase Profiler, residual kinase activity
- Assay type: biochemical
- STATED CONDITIONS: JAK2; inhibitor at 500 nM; read-out: percentage of the remaining kinase activity
MEASUREMENT NAME: remaining activity at 0.5 µM (%)

COC1C(N(C)C(=O)C(N)CCC(=O)O)CC2OC1(C)n1c3ccccc3c3c4c(c5c6ccccc6n2c5c31)C(=O)NC4 (centres unmarked) = 1.5
CN[C@@H]1C[C@H]2O[C@@](C)([C@@H]1OC)n1c3ccccc3c3c4c(c5c6ccccc6n2c5c31)C(=O)NC4 [STU, staurosporine, reference compound] = 0.8
COC1C(N(C)C(=O)C(N)Cc2ccc(OC(C)(C)C)cc2)CC2OC1(C)n1c3ccccc3c3c4c(c5c6ccccc6n2c5c31)C(=O)NC4 (centres unmarked) = 36.4

P = COC1C(N(C)C(=O)C(N)CCC(=O)OC(C)(C)C)CC2OC1(C)n1c3ccccc3c3c4c(c5c6ccccc6n2c5c31)C(=O)NC4 (centres unmarked)
Q = COC1C(N(C)C(=O)C(N)Cc2c[nH]cn2)CC2OC1(C)n1c3ccccc3c3c4c(c5c6ccccc6n2c5c31)C(=O)NC4 (centres unmarked)
Pick one, P or Q : lowest reported remaining activity at 0.5 µM. Pick one and reply with its label.
Q
(Q: 4.4%, P: 39.6%)

###

- SYSTEM UNDER TEST: FGFR1 (Homo sapiens)
- Sequence (P11362 22-822): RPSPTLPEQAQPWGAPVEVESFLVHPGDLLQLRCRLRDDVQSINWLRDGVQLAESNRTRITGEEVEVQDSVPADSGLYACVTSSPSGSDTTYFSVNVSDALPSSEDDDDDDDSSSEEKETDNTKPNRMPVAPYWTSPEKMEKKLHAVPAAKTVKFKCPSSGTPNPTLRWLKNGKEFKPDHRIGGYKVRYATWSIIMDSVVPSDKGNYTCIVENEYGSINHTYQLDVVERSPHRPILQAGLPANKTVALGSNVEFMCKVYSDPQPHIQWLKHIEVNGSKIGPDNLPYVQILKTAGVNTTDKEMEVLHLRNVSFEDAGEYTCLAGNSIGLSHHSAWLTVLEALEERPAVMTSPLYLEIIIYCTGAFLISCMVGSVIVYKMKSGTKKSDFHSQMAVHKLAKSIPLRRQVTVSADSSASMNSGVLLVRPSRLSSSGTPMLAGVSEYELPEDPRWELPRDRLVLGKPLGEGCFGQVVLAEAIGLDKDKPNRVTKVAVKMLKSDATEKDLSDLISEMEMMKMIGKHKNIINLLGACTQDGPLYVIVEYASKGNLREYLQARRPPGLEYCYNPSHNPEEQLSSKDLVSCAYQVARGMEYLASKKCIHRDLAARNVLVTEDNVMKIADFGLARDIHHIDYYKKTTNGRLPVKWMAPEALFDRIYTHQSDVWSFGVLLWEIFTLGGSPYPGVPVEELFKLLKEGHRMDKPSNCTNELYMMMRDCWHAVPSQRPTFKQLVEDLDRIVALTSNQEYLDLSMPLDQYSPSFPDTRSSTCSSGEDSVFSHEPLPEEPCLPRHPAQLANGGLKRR
- PROCEDURE TEXT: Kinase Profiler, residual kinase activity
- Format: biochemical
- STATED CONDITIONS: FGFR1; inhibitor at 500 nM; read-out: percentage of the remaining kinase activity
MEASUREMENT NAME: remaining activity at 0.5 µM (%)

COC1C(N(C)C(=O)C(N)CCC(=O)OC(C)(C)C)CC2OC1(C)n1c3ccccc3c3c4c(c5c6ccccc6n2c5c31)C(=O)NC4 (stereo not shown) [Compound 6] = 29.5
COC1C(N(C)C(=O)C(N)Cc2ccc(O)cc2)CC2OC1(C)n1c3ccccc3c3c4c(c5c6ccccc6n2c5c31)C(=O)NC4 (stereo not shown) [Compound 5] = 16.6
COC1C(N(C)C(=O)C(N)Cc2ccc(OC(C)(C)C)cc2)CC2OC1(C)n1c3ccccc3c3c4c(c5c6ccccc6n2c5c31)C(=O)NC4 (stereo not shown) [Compound 4] = 53.3

A = COC1C(N(C)C(=O)C(N)CCC(=O)O)CC2OC1(C)n1c3ccccc3c3c4c(c5c6ccccc6n2c5c31)C(=O)NC4 (stereo not shown) [Compound 7]
B = COC1C(N(C)C(=O)C(N)Cc2c[nH]cn2)CC2OC1(C)n1c3ccccc3c3c4c(c5c6ccccc6n2c5c31)C(=O)NC4 (stereo not shown) [Compound 1]
Pick one, A or B : lowest reported remaining activity at 0.5 µM. Pick one and reply with its label.
A

a = COC1C(N(C)C(=O)C(N)Cc2cn(C(=O)OC(C)(C)C)c3ccccc23)CC2OC1(C)n1c3ccccc3c3c4c(c5c6ccccc6n2c5c31)C(=O)NC4 (stereo not shown) [Compound 2]
b = COC1C(N(C)Cc2ccc(-c3ccccc3)cc2)CC2OC1(C)n1c3ccccc3c3c4c(c5c6ccccc6n2c5c31)C(=O)NC4 (stereo not shown) [Compound 9]
Choose between a and b : whose measured remaining activity at 0.5 µM value is numerically larger? Pick one and reply with its label.
a
(a: 101%, b: 25.7%)

###

- SYSTEM UNDER TEST: OXSR1 (Homo sapiens)
- Construct: purchased Research Biology Corp. (http://www.reactionbiology.com)
- Sequence (O95747 whole entry): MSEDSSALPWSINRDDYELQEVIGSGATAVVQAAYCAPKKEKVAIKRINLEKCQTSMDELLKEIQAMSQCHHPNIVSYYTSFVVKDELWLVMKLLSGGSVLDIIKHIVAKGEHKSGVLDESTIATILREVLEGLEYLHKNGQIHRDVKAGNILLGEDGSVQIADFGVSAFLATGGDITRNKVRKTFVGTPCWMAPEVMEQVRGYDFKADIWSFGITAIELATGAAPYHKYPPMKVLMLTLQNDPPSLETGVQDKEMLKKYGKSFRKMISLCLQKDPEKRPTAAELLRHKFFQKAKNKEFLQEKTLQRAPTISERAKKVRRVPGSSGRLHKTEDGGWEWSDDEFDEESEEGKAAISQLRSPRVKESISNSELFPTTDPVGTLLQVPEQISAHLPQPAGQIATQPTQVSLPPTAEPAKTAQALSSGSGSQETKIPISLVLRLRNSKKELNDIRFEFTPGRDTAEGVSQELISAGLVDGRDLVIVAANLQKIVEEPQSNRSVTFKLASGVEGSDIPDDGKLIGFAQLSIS
- PROCEDURE TEXT: Kinase Profiler, residual kinase activity
- Format: biochemical
- STATED CONDITIONS: OXSR1; inhibitor at 500 nM; read-out: percentage of the remaining kinase activity
- Source text: Kinase Profiler services provided by […]. (http://www.reactionbiology.com) were used to analyze the data of the 9 type-S protein kinase inhibitors against the 40 types of protein kinases.
MEASUREMENT NAME: remaining activity at 0.5 µM (%)

COC1C(N(C)C(=O)C(N)CCC(=O)O)CC2OC1(C)n1c3ccccc3c3c4c(c5c6ccccc6n2c5c31)C(=O)NC4 (stereo not drawn) [Compound 7] = 100
COC1C(N(C)Cc2ccc(-c3ccccc3)cc2)CC2OC1(C)n1c3ccccc3c3c4c(c5c6ccccc6n2c5c31)C(=O)NC4 (stereo not drawn) [Compound 9] = 94.7
COC1C(N(C)C(=O)C(N)Cc2ccc(O)cc2)CC2OC1(C)n1c3ccccc3c3c4c(c5c6ccccc6n2c5c31)C(=O)NC4 (stereo not drawn) [Compound 5] = 109
